Would you mind telling me the reported inhibition at 200 µg/mL of each entry?
target: α-glucosidase (Saccharomyces cerevisiae); construct: purchased Sigma, St. Louis, MO, USA G5003; experiment: biochemical; conditions: read-out: α-Glucosidase Inhibitory Activity % Inhibition at 200 µg/mL
Sequence (P53341 whole entry): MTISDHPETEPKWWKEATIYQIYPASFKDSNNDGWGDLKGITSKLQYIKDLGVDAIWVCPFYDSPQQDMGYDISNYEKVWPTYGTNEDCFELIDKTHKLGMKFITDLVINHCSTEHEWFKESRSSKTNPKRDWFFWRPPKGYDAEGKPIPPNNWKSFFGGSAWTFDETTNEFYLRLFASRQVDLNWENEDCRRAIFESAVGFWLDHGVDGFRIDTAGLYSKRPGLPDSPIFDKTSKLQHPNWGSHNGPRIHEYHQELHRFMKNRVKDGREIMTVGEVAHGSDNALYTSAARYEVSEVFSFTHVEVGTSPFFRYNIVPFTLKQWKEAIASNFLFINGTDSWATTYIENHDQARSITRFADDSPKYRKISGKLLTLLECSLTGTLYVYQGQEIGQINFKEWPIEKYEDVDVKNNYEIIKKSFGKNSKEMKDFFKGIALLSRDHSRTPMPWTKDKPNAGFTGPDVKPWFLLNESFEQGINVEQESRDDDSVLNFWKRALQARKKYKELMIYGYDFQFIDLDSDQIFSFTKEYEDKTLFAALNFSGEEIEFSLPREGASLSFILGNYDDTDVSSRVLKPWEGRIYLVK
Answers are plain numbers, in %.

COC(=O)C[C@@]12OC(=O)C[C@@H](C)[C@@H]1Oc1ccc(-c3ccc4c(c3O)C(=O)[C@]3(CC(=O)OC)OC(=O)C[C@@H](C)[C@@H]3O4)c(O)c1C2=O [Compound 2, Daldiniaeschsone B] :: 96.8
C[C@H]1Cc2cccc(O)c2C(=O)O1 [Compound 5, (+)-mellein] :: 97.5
C[C@H]1O[C@H](O[C@H]2[C@H](O)[C@@H](O)[C@@H](O[C@H]3[C@H](O)[C@@H](O)C(O)O[C@@H]3CO)O[C@@H]2CO)[C@H](O)[C@@H](O)[C@@H]1N[C@H]1C=C(CO)[C@@H](O)[C@H](O)[C@H]1O (stereo partly drawn) [Acarbose, reference compound] :: 95.6
O=C1CC[C@H](O)c2cccc(O)c21 [Compound 3, (+)-regiolone] :: 97.8
O=C1C[C@@H](O)[C@@H](O)c2cccc(O)c21 [Compound 4] :: 97.8

Which inhibition at 200 µg/mL is listed for COC(=O)C[C@@]12OC(=O)C[C@@H](C)[C@@H]1Oc1cccc(O)c1C2=O (relative stereo) [Compound 1, Daldiniaeschsone A] ?
98.7
